test system: WiDR BRAF V600E (colon); test: MTT assay; format: cell-based; conditions: Homo sapiens, 72 h, Table 5, 3 days incubation, read-out: MTT assay IC50 BRAF mutant (Colon) WiDR BRAF V600E
Exercise: state measured pIC50 for each of the compounds provided.
For clarity, pIC50 is expressed as the negative log10 of concentration in mol/L.

Challenge: Give the reported pIC50 for O=C(Nc1cc(Nc2ncccc2-c2ncnc3[nH]cnc23)ccc1F)c1cccc(C(F)(F)F)c1 [Example 30] (system: WiDR BRAF V600E (colon)).
Response given: 6.20

Challenge: Give the reported pIC50 for CC(C)(C#N)c1cccc(C(=O)Nc2cc(Nc3ncccc3-c3ncnc4[nH]cnc34)ccc2F)c1 [Example 21] (system: WiDR BRAF V600E (colon)).
Response given: 7.55

Challenge: Give the reported pIC50 for O=C(Nc1cc(Nc2ncccc2-c2ncnc3[nH]cnc23)ccc1F)c1cc(C(F)(F)F)cc(C(F)(F)F)c1 [Example 65] (system: WiDR BRAF V600E (colon)).
Response given: 6.61

Challenge: Give the reported pIC50 for O=C(Nc1cc(Nc2ncccc2-c2ncnc3[nH]cnc23)ccc1F)c1cc(Cl)cc(C(F)(F)F)c1 [Example 135] (system: WiDR BRAF V600E (colon)).
Response given: 7.17
